The values you see were collected from patent US20060069132A1.

# Tested on: morningglory
# methodSummary: Test A pre-/postemergence herbicide test
# Assay type: in vivo, Ipomoea spp.
# condition: Preemergence, 2000 g ai/ha; visual rating, 0 to 100 scale (0 no effect, 100 complete control)
Morningglory plant response rating listing for selected compounds.
Please give the numeric answer without any surrounding text.

Solved cases (4 shown):
- CCNC(=O)c1cccc(NC(=O)c2nn(C3CCCC3)nc2CC)c1: 15
- CCc1nc(C(C)(C)C)sc1C(=O)Nc1cccc(C(=O)NC(C)(C)C)n1: 15
- Cc1nn(C(C)(C)C)cc1C(=O)Nc1cccc(OC(C)C)c1: 30
- CCNC(=O)c1ccc(F)c(NC(=O)C2CC(C(C)(C)C)=NN2CC)c1 (racemic): 30

Now look at this entry.
// output Morningglory plant response rating; input `CCN(C)C(=O)c1ccc(F)c(NC(=O)c2cc(C(C)(C)C)nn2CC)n1` ; system morningglory
15
